Sourced from patent US20040259764A1

Test system: Reticulocyte Depletion Signature (Alas2 and peripherin probes), liver
EXPERIMENTAL_CONTEXT: rat, in vivo
Label Condition met when Signature Projection Score (SPS) < 30; otherwise Condition not met.

{"MOLECULE": "CC(C)(Oc1ccc(CCNC(=O)c2ccc(Cl)cc2)cc1)C(=O)O [BEZAFIBRATE]", "LABEL_CLASS": "Condition met"}
{"MOLECULE": "CC#C[C@]1(O)CC[C@H]2[C@@H]3CCC4=CC(=O)CCC4=C3[C@@H](c3ccc(N(C)C)cc3)C[C@@]21C", "LABEL_CLASS": "Condition met"}
{"MOLECULE": "CC(C)c1c(C(=O)Nc2ccccc2)c(-c2ccccc2)c(-c2ccc(F)cc2)n1CC[C@@H](O)C[C@@H](O)CC(=O)O", "LABEL_CLASS": "Condition met"}
{"MOLECULE": "C#C[C@]1(OC(C)=O)CC[C@H]2[C@@H]3CCC4=CC(=O)CC[C@@H]4[C@H]3CC[C@@]21C [NORETHINDRONE ACETATE]", "LABEL_CLASS": "Condition met"}
{"MOLECULE": "O=C(c1ccc(OCCN2CCCCC2)cc1)c1c(-c2ccc(O)cc2)sc2cc(O)ccc12", "LABEL_CLASS": "Condition met"}

Lab note: Signature Projection Score (SPS) threshold 30. Does this molecule come in strictly under it? C[C@]12CC[C@@H]3c4ccc(O)cc4CC[C@H]3[C@@H]1C[C@@H](O)[C@@H]2O
Condition not met
